meta.source: patent US7642058B2

biological target: anti-maltose antibody; assay: Conventional SPR affinity assay, maltose on immobilized anti-maltose antibody; assay type: binding; settings: 12 injections 0 to 1500 μM, 25° C.
readout_type: pKd
API: returns pKd as number; meaning -log10 of concentration in mol/L.

In: Requested field: pKd. Item: OC[C@H]1O[C@H](O[C@H]2[C@H](O)[C@@H](O)C(O)O[C@@H]2CO)[C@H](O)[C@@H](O)[C@@H]1O (mixture of isomers)
Out: 2.07
